# Test system: Pseudomonas aeruginosa
# assay_details: Antibacterial activity against Pseudomonas aeruginosa PAO397 [PAO1 d(mexAB-oprM) d(mexCD-oprJ) d(mexEF-oprN) d(mexJKL) d(mexXY) d(opmH)] (CO-ADD:GN_211); MIC in CAMBH media using NBS plates, by OD(600)
# Assay type: functional
# measurement_conditions: ASSAY_TEST Inhibition of Bacterial Growth, detection method Absorption (OD600), MEDIA CAMHB, plate type 384well, CORNING #3640, time 18 hr
Where a name gives a salt, the structure may show the parent alone.
quantity_name: MIC

1) Nc1nc(C(F)(F)F)cc2c1[nH]c(=O)n2Cc1ccccc1	> 20 µM
2) O=C(O)c1sccc1S(=O)(=O)n1ccc2cc(Br)ccc21	> 20 µM
3) CCNC(=O)Nc1cc2c(-c3ccnc(C)c3)ccc(CNC(=O)OC)c2cn1	2.5 µM
4) CC[C@H](CO)Nc1nc(NCc2ccccc2)c2ncn(C(C)C)c2n1	> 20 µM
5) Cn1cc(NC(=O)c2cc(NC(=O)c3ccc(/C=C/c4cnc5ccccc5c4)cc3)cn2C)cc1C(=O)NCCN1CCOCC1	> 20 µM
6) CCC[C@@H]1C[C@@H](C(=O)N[C@@H]([C@H]2O[C@H](SC)[C@H](O)[C@@H](O)[C@H]2O)[C@H](C)Cl)N(C)C1 [CLINDAMYCIN HYDROCHLORIDE]	20 µM
7) CCOC(=O)/C=C/[C@H](C[C@@H]1CCNC1=O)NC(=O)[C@@H](CC(=O)[C@@H](NC(=O)c1cc(C)on1)C(C)C)Cc1ccc(F)cc1	> 20 µM

Okay, next one:
Exam item: Quick one: MIC for O=C(/C=C\n1cnc(-c2cc(C(F)(F)F)cc(C(F)(F)F)c2)n1)NNc1ccccn1 [VERDINEXOR] ?
Marked response: > 20 µM

* * *

# System: Pseudomonas aeruginosa
# assay_details: microbe, parasite or virus in culture
# measurement_conditions: ATCC 27853, 18 h, ASSAY_TEST Inhibition of Bacterial Growth, detection method Absorption (OD600), MEDIA CAMHB, plate type 384well, NBS, CORNING #3640
# Description: Antibacterial activity against Pseudomonas aeruginosa ATCC 27853 (CO-ADD:GN_042); MIC in CAMBH media using NBS plates, by OD(600)
quantity_name: MIC

The following compounds have reported results that may help.
1. CC(C)(C)OC(=O)NCc1ccc(C(=O)N[C@H]2CCOC2=O)cc1	> 20 µM
2. NC(=O)C(c1ccccc1)(c1ccccc1)[C@H]1CCCN(CCc2ccc3c(c2)CCO3)C1	> 20 µM
3. O=c1cc(OCc2ccccc2)ccn1Cc1ccccc1	> 20 µM
4. Cc1nc2ccc(Oc3ccccc3)cc2c2c1CCN2CCc1ccccc1	> 20 µM
5. O=S(=O)(Nc1cccc2cccnc12)c1ccccc1	> 20 µM

Exam item: GET /values?readout=MIC&system=Pseudomonas aeruginosa&item= CC1CCc2c(N3CCC(O)CC3)c(F)cc3c(=O)c(C(=O)O)cn1c23 (stereo unspecified)
Marked response: 1.25 µM

* * *

molecules and their reported MIC
# Tested on: Pseudomonas aeruginosa
# assay_details: Antibacterial activity against Pseudomonas aeruginosa PAO397 [PAO1 d(mexAB-oprM) d(mexCD-oprJ) d(mexEF-oprN) d(mexJKL) d(mexXY) d(opmH)] (CO-ADD:GN_211); MIC in CAMBH media using NBS plates, by OD(600)
# Format: functional
# measurement_conditions: ASSAY_TEST Inhibition of Bacterial Growth, detection method Absorption (OD600), MEDIA CAMHB, plate type 384well, CORNING #3640, time 18 hr

1. Cc1ncc([N+](=O)[O-])n1CC(O)CN1CCOCC1 (centres undefined)	> 20 µM
2. C[C@H](NC(=O)C(=O)Nc1ccccc1C(C)(C)C)C(=O)N[C@@H](CC(=O)O)C(=O)COc1c(F)c(F)cc(F)c1F	> 20 µM
3. CC(C)(C)c1cc(CCC(=O)N2CCC2)cc(C(C)(C)C)c1O	> 20 µM
4. Cc1nc(-c2ccc(C3N(C)c4ccc(F)cc4C(=O)N3c3ccccc3)s2)cs1 (centres undefined)	> 20 µM
5. CC(C)(C)NC(=O)N[C@H](C(=O)N1C[C@H]2[C@@H]([C@H]1C(=O)NC(CC1CCC1)C(=O)C(N)=O)C2(C)C)C(C)(C)C (some centres undefined)	> 20 µM
6. COc1cc(NCc2ccc3nc(N)nc(N)c3c2C)cc(OC)c1OC [TRIMETREXATE]	0.625 µM
7. CCOCc1nc2c(N)nc3ccccc3c2n1CC(C)(C)O	> 20 µM
8. Cc1nc2ccc(Cl)cc2c(-c2ccccc2)c1CC(=O)O	> 20 µM

Okay, next one:
Exam item: Quick one: MIC for NC1C2CC3CC(C2)CC1C3 (centres undefined) ?
Marked response: > 20 µM

* * *

# Test system: Pseudomonas aeruginosa
# assay_details: Antibacterial activity against Pseudomonas aeruginosa PAO397 [PAO1 d(mexAB-oprM) d(mexCD-oprJ) d(mexEF-oprN) d(mexJKL) d(mexXY) d(opmH)] (CO-ADD:GN_211); MIC in CAMBH media using NBS plates, by OD(600)
# Assay type: functional
# measurement_conditions: ASSAY_TEST Inhibition of Bacterial Growth, detection method Absorption (OD600), MEDIA CAMHB, plate type 384well, CORNING #3640, time 18 hr
compounds and their reported MIC

Exam item: Quick one: MIC for C[C@@H](NC(=O)c1cccc(-c2cnc(-c3cc4ccccc4cn3)[nH]2)c1)c1ccc(F)cc1 ?
Marked response: > 20 µM

Exam item: Quick one: MIC for CC(C)(C)c1ccc(Oc2ccc(N)cc2)cc1 ?
Marked response: > 20 µM

Exam item: Quick one: MIC for O=C(NO)C1(CS(=O)(=O)c2ccc(Oc3ccc(Cl)cc3)cc2)CCOCC1 [CTS-1027] ?
Marked response: 20 µM

Exam item: Quick one: MIC for CCCC(=O)OCCc1ccccc1 ?
Marked response: > 20 µM

Exam item: Quick one: MIC for N=C(N)NCCCCC(=O)Nc1cc(C(F)(F)F)cc(NC(=O)c2cc(C(=O)Nc3cc(C(F)(F)F)cc(NC(=O)CCCCNC(=N)N)c3O[C@@H]3CCNC3)ncn2)c1O[C@@H]1CCNC1 ?
Marked response: 5 µM

Exam item: Quick one: MIC for CO[C@@]1(NC(=O)Cc2cccs2)C(=O)N2C(C(=O)O)=C(COC(N)=O)CS[C@@H]21 [CEFOXITIN] ?
Marked response: > 20 µM

Exam item: Quick one: MIC for O=C(c1cc(O)nc2ccccc12)N1CCN(c2ccccc2)CC1 ?
Marked response: > 20 µM
